- Test system: NCI-H650
- MEASUREMENT_DESCRIPTION: relative viability (nuclei count vs DMSO), 5 days (fraction); higher = more cells survive
- CONDITION_DETAILS: first compound 8 µM
The reader will find reported relative viability values listed item by item below.
MEASURED_ENDPOINT: relative viability

MOLECULE: Nc1cccc2c1CN(C1CCC(=O)NC1=O)C2=O (centres undefined) [Lenalidomide] + CS(=O)(=O)N1CCN(Cc2cc3nc(-c4cccc5[nH]ncc45)nc(N4CCOCC4)c3s2)CC1 [Pictilisib] (partner 1 µM)
TEST_VALUE: 0.739
--
MOLECULE: Nc1cccc2c1CN(C1CCC(=O)NC1=O)C2=O (centres undefined) [Lenalidomide] + C[C@@H](Oc1cc(-c2cnn(C3CCNCC3)c2)cnc1N)c1c(Cl)ccc(F)c1Cl [Crizotinib] (partner 1 µM)
TEST_VALUE: 0.809
--
MOLECULE: Nc1cccc2c1CN(C1CCC(=O)NC1=O)C2=O (centres undefined) [Lenalidomide] + CS(=O)(=O)CCNCc1ccc(-c2ccc3ncnc(Nc4ccc(OCc5cccc(F)c5)c(Cl)c4)c3c2)o1 [Lapatinib] (partner 2 µM)
TEST_VALUE: 0.804
--
MOLECULE: Nc1cccc2c1CN(C1CCC(=O)NC1=O)C2=O (centres undefined) [Lenalidomide] + CC(=O)Nc1cccc(-n2c(=O)n(C3CC3)c(=O)c3c(Nc4ccc(I)cc4F)n(C)c(=O)c(C)c32)c1 [Trametinib] (partner 0.02 µM)
TEST_VALUE: 0.891

---

Each entry below carries its recorded relative viability.
- Tested on: RERF-LC-KJ
- MEASUREMENT_DESCRIPTION: relative viability (nuclei count vs DMSO), 5 days (fraction); higher = more cells survive
- CONDITION_DETAILS: first compound 0.1 µM
MEASURED_ENDPOINT: relative viability

COMPOUND: Cc1cn(-c2cc(NC(=O)c3ccc(C)c(Nc4nccc(-c5cccnc5)n4)c3)cc(C(F)(F)F)c2)cn1 [Nilotinib] + COc1cccc2cc(-c3nc([C@H]4CC[C@H](C(=O)O)CC4)n4ncnc(N)c34)[nH]c12 [OSI-027] (partner 0.5 µM)
EXPERIMENTAL_SYSTEM: RERF-LC-KJ
TEST_VALUE: 0.374
//
COMPOUND: Cc1cn(-c2cc(NC(=O)c3ccc(C)c(Nc4nccc(-c5cccnc5)n4)c3)cc(C(F)(F)F)c2)cn1 [Nilotinib] + CCNC(=O)c1noc(-c2cc(C(C)C)c(O)cc2O)c1-c1ccc(CN2CCOCC2)cc1 [Luminespib] (partner 0.01 µM)
EXPERIMENTAL_SYSTEM: RERF-LC-KJ
TEST_VALUE: 1.22
//
COMPOUND: Cc1cn(-c2cc(NC(=O)c3ccc(C)c(Nc4nccc(-c5cccnc5)n4)c3)cc(C(F)(F)F)c2)cn1 [Nilotinib] + CC1(C)CCC(c2ccc(Cl)cc2)=C(CN2CCN(c3ccc(C(=O)NS(=O)(=O)c4ccc(N[C@H](CCN5CCOCC5)CSc5ccccc5)c(S(=O)(=O)C(F)(F)F)c4)cc3)CC2)C1 [Navitoclax] (partner 0.5 µM)
EXPERIMENTAL_SYSTEM: RERF-LC-KJ
TEST_VALUE: 1.08
//
COMPOUND: Cc1cn(-c2cc(NC(=O)c3ccc(C)c(Nc4nccc(-c5cccnc5)n4)c3)cc(C(F)(F)F)c2)cn1 [Nilotinib] + C[C@]1(O)C[C@@H](c2nc(-c3ccc4ccc(-c5ccccc5)nc4c3)c3c(N)nccn32)C1 [Linsitinib] (partner 1 µM)
EXPERIMENTAL_SYSTEM: RERF-LC-KJ
TEST_VALUE: 0.917

The reported measurements were obtained from the supplement of paper PMC10307832.
